protocol.summary: StAR promoter reporter inhibitors, counter-screen for LRH-1 inverse agonist project, cell-based, luminescence, high throughput (AID 651611)
run.conditions: StAR promoter luciferase reporter counterscreen, at 3.6 µM
The source made the active and inactive calls. No stated cut-off is given here; in the data, active means inhibition above about 28%; inactive means the rest.
Tick one outcome: active, inactive

Look over these answered cases.
> print(dat)
                                   compound  category.label
1  NC(=O)c1oc2ccccc2c1NC(=O)c1ccc([N+](=O)[O-])o1        inactive
2       O=C(Nc1cccnc1)c1ccc([N+](=O)[O-])o1        inactive
3    COC(=O)c1cc2occc2n1CC(=O)Nc1ccc(C)cc1C        inactive
4  Cc1cc(OCC(=O)N2CCC(O)CC2)c2c(C)cc(=O)oc2c1        inactive

query: // param item: Cc1ccc(NC(=O)COC(=O)C(NS(=O)(=O)c2ccc(Cl)cc2)C(C)O)cc1C (stereo not given) ; yields the recorded call
result: inactive

query: Now the same for Cc1c(NC(=O)c2ccc([N+](=O)[O-])o2)cccc1-c1nc2ncccc2o1
result: inactive

query: Now the same for Cn1c(SCC(=O)Nc2ccc(N3CCOCC3)cc2)nnc1-c1ccccc1
result: inactive

query: Now the same for Cc1ccc2oc(/N=C(\N)NC(=O)C(C)(C)C)nc2c1
result: active

query: Now the same for CCOc1ccc(-c2cc(CCCC(=O)Nc3cccc(OC)c3)no2)cc1
result: active

query: Now the same for Cc1ccc(S(=O)(=O)N2CC(O)CC2C(=O)OCC(=O)Nc2ccc([N+](=O)[O-])cc2C(F)(F)F)cc1C (stereo not given)
result: inactive

====

protocol.summary: StAR promoter reporter inhibitors, counter-screen for LRH-1 inverse agonist project, cell-based, luminescence, high throughput (AID 651611)
run.conditions: StAR promoter luciferase reporter counterscreen, at 3.6 µM, active compounds read high
value.kind: inhibition (%)
// return numeric value only (unit: %, not printed)

Record excerpt, results attached:
> print(dat)
                                   molecule  readout.value
1  COc1ccc(NC(=O)COC(=O)CNC(=O)c2cc(OC)c(OC)c(OC)c2)cc1           8.08
2           CCC(C)(C)c1ccc(Oc2ccc(N)cc2)cc1           57.4
3  O=c1c2ccccc2nc(N/N=C/c2c(O)ccc3ccccc23)n1O           81.4

query: If you can, please state the reported inhibition value of CCOC(=O)c1sc(N(Cc2ccccc2)C(=O)COC(=O)c2ccc(O)cc2)nc1C .
result: -92.1

query: Now the same for CC(C)(C)C(=O)N1CCN(c2ccc(NC(=O)c3ccc([N+](=O)[O-])o3)cc2)CC1
result: 11.1

query: Now the same for CCOC(=O)c1cc(C#N)c(N2CCCCC2)nc1-c1ccccc1
result: 8.89

query: Now the same for COc1ccc(N=C2NN=C(c3c(C)[nH]c4ccccc34)CS2)cc1
result: -7.38

query: Now the same for Cc1cc(C)c(SCCc2ccncc2)c(C)c1
result: 5.23

====

Test system: transactivating tegument protein VP16 (Human herpesvirus 1), Gal4-VP16 luciferase reporter
protocol.summary: VP16 transactivation inhibitors, counter-screen for SRC3 inhibitor project, cell-based, luminescence, high throughput (AID 588794)
run.conditions: mammalian cells, VP16-driven luciferase reporter luminescence; at 3.6 µM
The source made the active and inactive calls. No stated cut-off is given here; in the data, active means inhibition above about 30%; inactive means the rest.
Tick one outcome: active, inactive

> print(dat)
                                   compound  category.label
1  O=C(NCCNc1ccc([N+](=O)[O-])cc1C(F)(F)F)c1cccc(F)c1        inactive
2  Cc1ccc2occ(/C=N/NC(=O)c3ccccc3Br)c(=O)c2c1        inactive
3  C/C(=N\NC(=O)c1cc(-c2cccnc2)nc2ccccc12)c1ccc(O)cc1O          active
4             CC(C)n1c(-c2cccnc2)nc2cnccc21        inactive
5  CCC1(O)C(=O)OCc2c1cc1n(c2=O)Cc2cc3cc(O)ccc3nc2-1 (stereo not given)          active

query: // param item: COc1cccc2c1C(=O)c1c(O)c3c(c(O)c1C2=O)CC(O)(C(=O)CO)CC3OC1CC(N(C)C)C(O)C(C)O1 (stereo not given) ; yields the recorded call
result: active

query: Now the same for Cc1nc2ccc(NC(=O)c3ccc(Cl)c(S(=O)(=O)N(C)c4ccccc4)c3)cc2s1
result: active

query: Now the same for O=C(CCc1ccccc1)N/N=C/c1cc(Br)ccc1O
result: inactive

query: Now the same for CC12CN3CC(C)(CN(C1)C3c1ccccc1F)C2 (stereo not given)
result: inactive

query: Now the same for O=C(CC(Nc1ccc(Cl)cc1Cl)C(=O)O)c1ccccc1 (stereo not given)
result: inactive
